# protocol notes: Apparent permeability cross basolateral to apical side in MDCK-MDR1 cells at 5 uM after 90 mins by LC-MS/MS analysis
# Assay type: ADME, cell-based, Canis lupus familiaris
# setup conditions: dog, mdck-mdr1, 1.5 h
Attribute: Papp
experimental readout: Papp (×10⁻⁶ cm/s)

>>> df
                                   molecule  meas_value
0  COc1cc(-c2cnc3c(N4C[C@@H](C)O[C@@H](C)C4)snc3c2)ccc1N       18.28
1     COc1cc(-c2cnc3c(N4CCOCC4)snc3c2)ccc1N        30.8
2  COc1cc(-c2cnc3c(N4CCNC(=O)C4)snc3c2)ccc1N       43.48
3  COCCc1ccc(OCC(O)CNC(C)C)cc1 (centres undefined)       30.66
